meta.source: patent US20070078102A1

Quick reference: log10(IC50) of the listed items.
biological target: NF-kB p65/p50 heterodimer (RelA/NFKB1) (Homo sapiens, UniProt Q04206;P19838 Q04206:1-551,P19838:1-433); test: EMSA; competition vs 32P 113/114 probe; conditions: protein: extract; tags: none; nuclear extract of LPS-stimulated THP-1 cells
Sequence (Q04206 whole entry, chain 1 of 2): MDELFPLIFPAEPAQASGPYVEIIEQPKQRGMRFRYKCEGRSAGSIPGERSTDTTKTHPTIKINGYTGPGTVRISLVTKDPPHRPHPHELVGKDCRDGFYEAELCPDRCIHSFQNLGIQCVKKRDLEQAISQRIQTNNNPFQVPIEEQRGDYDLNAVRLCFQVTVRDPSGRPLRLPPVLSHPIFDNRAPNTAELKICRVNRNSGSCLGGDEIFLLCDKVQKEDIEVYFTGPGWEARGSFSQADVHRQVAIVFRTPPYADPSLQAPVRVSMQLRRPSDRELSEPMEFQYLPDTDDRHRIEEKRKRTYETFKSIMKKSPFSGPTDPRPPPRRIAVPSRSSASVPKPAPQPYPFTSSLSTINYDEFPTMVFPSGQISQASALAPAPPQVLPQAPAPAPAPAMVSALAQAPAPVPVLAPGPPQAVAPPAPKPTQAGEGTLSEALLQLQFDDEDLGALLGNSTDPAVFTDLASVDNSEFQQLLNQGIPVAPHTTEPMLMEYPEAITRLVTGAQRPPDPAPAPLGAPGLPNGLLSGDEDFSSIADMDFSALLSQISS
Sequence (P19838 1-433, chain 2 of 2): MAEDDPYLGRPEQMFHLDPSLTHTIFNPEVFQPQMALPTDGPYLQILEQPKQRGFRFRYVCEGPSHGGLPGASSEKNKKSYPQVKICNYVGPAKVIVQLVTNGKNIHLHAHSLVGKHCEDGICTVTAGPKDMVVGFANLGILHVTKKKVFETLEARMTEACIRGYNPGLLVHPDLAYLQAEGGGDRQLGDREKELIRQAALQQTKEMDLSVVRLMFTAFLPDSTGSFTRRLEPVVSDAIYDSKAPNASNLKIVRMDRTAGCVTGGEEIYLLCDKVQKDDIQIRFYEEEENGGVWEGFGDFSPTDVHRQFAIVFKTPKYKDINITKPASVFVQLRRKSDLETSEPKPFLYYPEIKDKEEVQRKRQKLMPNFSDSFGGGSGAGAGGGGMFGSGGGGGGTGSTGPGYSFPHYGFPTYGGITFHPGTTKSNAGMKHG
QUANTITY_NAME: log10(IC50) (log10 of the value in fold molar excess)

# BINDER, log10(IC50)
rows = [
    ("153/154 H7/H7 (dsDNA, PS at the 7 3'-most linkages of each strand) DNA 1: AGTTGAGGACTTTCCAGGC DNA 2: GCCTGGAAAGTCCTCAACT", 1.59),
    ("153/154 H6/H6 (dsDNA, PS at the 6 3'-most linkages of each strand) DNA 1: AGTTGAGGACTTTCCAGGC DNA 2: GCCTGGAAAGTCCTCAACT", 1.60),
    ("decoy 235 L-V (dsDNA) DNA 1: TCGGACTTTCCCTC DNA 2: GAGGGAAAGTCCGA", 1.57),
    ("decoy 259 E-Z' (dsDNA) DNA 1: TTGAGGACTTTCCAGGCTC DNA 2: GAGCCTGGAAAGTCCTCAA", 1.94),
    ("153/154 H8/H10 (dsDNA, PS at the 8 (153) and 10 (154) 3'-most linkages) DNA 1: AGTTGAGGACTTTCCAGGC DNA 2: GCCTGGAAAGTCCTCAACT", 1.52),
    ("decoy 191 A-X (dsDNA) DNA 1: CTGGGACTTTCCTC DNA 2: GAGGAAAGTCCCAG", 1.28),
    ("decoy 263 H-Z (dsDNA) DNA 1: AGTTGAGGATTTCCAGGC DNA 2: GCCTGGAAATCCTCAACT", 1.86),
    ("decoy 239 C-W' (dsDNA) DNA 1: CTCGGGGACTTTCCCTCA DNA 2: TGAGGGAAAGTCCCCGAG", 0.95),
    ("decoy 117 E-U (dsDNA) DNA 1: ATGGACTTTCCGT DNA 2: ACGGAAAGTCCAT", 1.86),
    ("decoy 195 C-V (dsDNA) DNA 1: TCGGGGACTTTCCCTC DNA 2: GAGGGAAAGTCCCCGA", 0.93),
    ("153/154 PO/H5 (dsDNA, strand 153 PO; strand 154 PS at the 5 3'-most linkages) DNA 1: AGTTGAGGACTTTCCAGGC DNA 2: GCCTGGAAAGTCCTCAACT", 1.81),
]
